# Ratio IC50 listing for each entry below
# Organism: Homo sapiens
# run-description: Selectivity ratio of IC50 for human CB2 receptor to IC50 for human CB1 receptor

CCCCOC(=O)Cn1nnc(-c2ccc(Cl)cc2)c1-c1ccc(Cl)cc1 > 1000
O=C(Cn1nc(-c2ccc(Cl)cc2Cl)c(-c2ccc(Cl)cc2Cl)n1)NCc1cc(F)ccc1F > 1000
O=C(NCc1ccccc1)n1nc(-c2ccc(Cl)cc2Cl)c(-c2ccc(Cl)cc2Cl)n1 > 1000
O=C(Cn1nc(-c2ccc(Cl)cc2)c(-c2ccc(Cl)cc2Cl)n1)NCc1ccc(F)cc1 > 1000

Input: Give Ratio IC50 for the following compound: `O=C(NC1CCCCC1)n1nc(-c2ccc(Cl)cc2)c(-c2ccc(Cl)cc2)n1`
Output: > 1000
